Tested on: NCI/ADR-RES
experimentDescription: cells
Type: cell-based, human
runConditions: NCI/ADR-RES cells; read-out: IC50, NCI/ADR-RES
assayEndpoint: pIC50
Hey, just a heads up that pIC50 is the negative log base 10 of the concentration in molar.

Some solved entries appear below for comparison.
• CON([C@H]1CC[C@@]2(C)[C@H](CC[C@@H]3[C@@H]2CC[C@]2(C)[C@@H](C4=CC(=O)OC4)CC[C@]32O)C1)[C@H]1OC[C@H](O)[C@@H](O)[C@@H]1O [23β, L-xyloside] = 6.86
• CON(C1CCC2(C)C(CCC3C2CCC2(C)C(C4=CC(=O)OC4)CCC32O)C1)C1OC(COC2OC(CO)C(O)C(O)C2O)C(O)C(O)C1O (stereo not drawn) [35β, melibioside] = 4.80
• CON([C@H]1CC[C@@]2(C)[C@H](CC[C@@H]3[C@@H]2CC[C@]2(C)[C@@H](C4=CC(=O)OC4)CC[C@]32O)C1)[C@H]1OC[C@H](O)[C@H](O)[C@H]1O [32β, L-arabinoside] = 6.19

-- ask Using the record for CON([C@H]1CC[C@@]2(C)[C@H](CC[C@@H]3[C@@H]2CC[C@]2(C)[C@@H](C4=CC(=O)OC4)CC[C@]32O)C1)[C@H]1O[C@@H](CO)[C@@H](O)[C@H](O)[C@H]1O [28β, L-idoside] , report its pIC50.
-- reply 6.21

-- ask Also CON([C@H]1CC[C@@]2(C)[C@H](CC[C@@H]3[C@@H]2CC[C@]2(C)[C@@H](C4=CC(=O)OC4)CC[C@]32O)C1)[C@H]1O[C@@H](C)[C@@H](O)[C@@H](O)[C@@H]1O [7β, L-fucoside] , if possible.
-- reply 6.60

-- ask Also CON([C@H]1CC[C@@]2(C)[C@H](CC[C@@H]3[C@@H]2CC[C@]2(C)[C@@H](C4=CC(=O)OC4)CC[C@]32O)C1)[C@@H]1O[C@H](CF)[C@@H](O)[C@H](O)[C@H]1O [13β, 6-deoxy-6-fluoro-D-glucoside] , if possible.
-- reply 5.96
